These data points were gathered from PubChem BioAssay AID624466.

# TESTED SYSTEM: Trace amine-associated receptor 1 (Homo sapiens) (UniProt Q96RJ0)
# Sequence (Q96RJ0 whole entry, looked up): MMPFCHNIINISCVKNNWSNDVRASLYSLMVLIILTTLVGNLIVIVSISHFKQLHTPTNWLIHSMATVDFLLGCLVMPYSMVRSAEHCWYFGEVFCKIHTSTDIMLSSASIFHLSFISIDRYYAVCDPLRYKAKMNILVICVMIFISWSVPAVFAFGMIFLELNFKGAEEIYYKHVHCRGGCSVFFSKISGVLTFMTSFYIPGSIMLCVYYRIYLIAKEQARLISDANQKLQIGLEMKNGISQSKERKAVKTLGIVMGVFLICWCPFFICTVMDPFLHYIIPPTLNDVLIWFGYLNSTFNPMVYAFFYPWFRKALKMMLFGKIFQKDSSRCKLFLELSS
# PROTOCOL DESCRIPTION: blockers of beta-PEA-driven TAAR1 calcium signal – Fluo-8 calcium fluorescence, CHO RD-HGA16 cells, primary screen (AID 624466);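 further: 0% = DMSO plus EC80 beta-PEA response and 100% = DMSO alone without agonist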
# CONDITION SET: CHO RD-HGA16 TAAR1, Fluo-8 calcium fluorescence, antagonist; at 3 µM; stronger effect = higher value
The whole screen tested about 360,000 compounds, of which about 5,400 (1.5%) were called active. For the sample, actives were picked, then their nearest neighbours and some compounds at random.

COMPOUND: O=C(COC(=O)c1c2c(nc3ccccc13)CCCC2)c1ccc(Br)s1
UNIT OF MEASURE: %
inhibition: 49
//
COMPOUND: O=C1NC[C@H](CCCCN2C[C@H](Cc3ccccc3)N(Cc3ccccc3)C(=O)C2=O)N(CCc2ccc(O)cc2)C1=O
UNIT OF MEASURE: %
inhibition: -9.2
//
COMPOUND: COC(=O)C1=C(C)N(Cc2ccccc2C(F)(F)F)C(=NCc2ccc(C(F)(F)F)cc2)NC1c1ccc(F)cc1 (stereo not given)
UNIT OF MEASURE: %
inhibition: -31.9
//
COMPOUND: Cn1cccc1C(=O)OCC(=O)c1ccc(Br)s1
UNIT OF MEASURE: %
inhibition: -0.72
//
COMPOUND: NS(=O)(=O)c1ccc(NC(=O)COC(=O)c2c3c(nc4ccccc24)/C(=C\c2ccc4c(c2)OCO4)CCC3)cc1
UNIT OF MEASURE: %
inhibition: 6.15
